- Test system: lateral line hair cells of zebrafish
- assay_summary: Protection against cisplatin-induced lateral line hair cell death
- Type: in vivo, zebrafish (Danio rerio)
- reported_conditions: exemplified platinum coordination complex (cisplatin)
observable: protective against toxic effects of cisplatin on hair cells (identified by screening)

# compound, study_system, val
measured = [
    ("CCN1CCc2c(sc(NC(=O)Nc3ccc(Cl)cc3)c2C(N)=O)C1 [Compound F5]", "lateral line hair cells of zebrafish", "protective"),
    ("COc1ccc(C(=O)NC(NC(=S)Nc2sc3c(c2C(N)=O)CCCC3)C(Cl)(Cl)Cl)cc1 (stereo not drawn) [Compound H10]", "lateral line hair cells of zebrafish", "protective"),
    ("NC(=O)c1c(NC(=O)CN2CCCCC2)sc2c1CCCC2 [Compound D]", "lateral line hair cells of zebrafish", "protective"),
    ("Cc1cccc(C(=O)NC(NC(=S)Nc2sc3c(c2C(N)=O)CCCC3)C(Cl)(Cl)Cl)c1 (stereo not drawn) [Compound A]", "lateral line hair cells of zebrafish", "protective"),
    ("NC(=O)c1c(NC(=O)c2ccc(Cl)c([N+](=O)[O-])c2)sc2c1CCCC2 [Compound C]", "lateral line hair cells of zebrafish", "protective"),
    ("NC(=O)c1c(NC(=O)Nc2ccc(Cl)cc2)sc2c1CCCC2 [Compound B]", "lateral line hair cells of zebrafish", "protective"),
]
